method.description: PSAC antagonists in infected red cells, primary screen, cell-based, P. falciparum Indochina, OD700, 2 h (AID 1155);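 also: lysis reports solute entry through the parasite surface anion channel PSAC; channel blockers reduce lysis of infected cells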
run.parameters: P. falciparum Indochina infected erythrocytes, osmotic lysis OD700; higher = more signal, called active from +8 up or from −8 down
metric: z-score
Reply briefly: the number, and no unit.

Ask: Query (compound): C=CCC(OC(C)=O)[C@@H]1[C@@H](N(Cc2cc3ccccc3o2)C(=O)c2cccc3ccccc23)c2cc(OCCCO)ccc2N1C(=O)c1ccc2ccccc2c1 (some centres undefined) ; field requested: z-score
Reply: 0.0881

Ask: CCOC(=O)C[C@H]1[C@H](OC(=O)c2ccc(C(=O)c3ccccc3)cc2)[C@@H](NC(=O)c2ccc3ccccc3c2)c2cc(OCCCO)ccc2N1C(=O)c1ccc2ccccc2n1 ?
Reply: 1.32

Ask: Then COCCOC(=O)N1C(=O)[C@@]2(c3cc(C#Cc4ccc(OC)cc4)ccc31)[C@H](C(=O)N1CCCCCCC1)[C@H]1C(=O)O[C@H](c3ccccc3)[C@H](c3ccccc3)N1[C@@H]2c1ccccc1OCCO ?
Reply: 1.36

Ask: Please do the same for COc1cc2c(cc1O)C(c1ccc(CN3CCCC3)cc1)N(Cc1ccc([N+](=O)[O-])o1)CC2 (centres undefined) as well.
Reply: 7.28

Ask: Another compound: C=C(COC)/C(=C/C[C@@H](OC(C)=O)c1ccccc1OCCO)c1cc(C(=O)OC)ccc1OC
Reply: 2.52

Ask: Another compound to check: NC(=O)N1C(=O)C2C(C1=O)C1C=C(CCCO)C2C(c2ccc(CN3CCCC3)cc2)N1Cc1cccc(OC(F)(F)F)c1 (centres undefined)
Reply: 0.63

Ask: Can you handle C[C@@H](OCc1ccccc1)C1NC(=O)[C@@]23C(=O)N[C@@H](Cc4ccccc4)C2[C@H](C)[C@@]2(C)O[C@H]2C3/C=C/C/C=C\CNC(=O)[C@H](Cc2ccccc2)NC1=O (some centres undefined) next?
Reply: 0.012

Ask: Also check C[N+](C)(C)CCCC[C@@H]1NC(=O)[C@H]2C[C@@H](C(=O)NCCCCCNC(=O)CS)[C@@H](c3ccc(O)cc3)N2C1=O
Reply: -0.38

Ask: Repeat for the following compound: CO[C@H]1O[C@H](CO)[C@@H](OC(=O)Nc2ccc(C(F)(F)F)cc2)[C@H](OC(=O)Nc2ccccc2-c2ccccc2)[C@@H]1OC(=O)Nc1ccccc1-c1ccccc1
Reply: 1.04

Ask: Then CCCCC(=C=CC[C@@H](O)c1ccc(OCCO)cc1)C[C@@H](O)c1ccccn1 ?
Reply: 2.47

Ask: Proceed to CN(C)CCCC[C@@H]1NC(=O)[C@@H]2C[C@H](C(=O)NCc3ccc(F)cc3)[C@H](c3ccc(O)cc3)N2C1=O
Reply: 0.947

Ask: Same for COC(=O)C1=CC(CCCO)=CC(C2CC2)N(Cc2cccc(OC(F)(F)F)c2)C=C1C(=O)OC (centres undefined)
Reply: 0.455

Ask: And then C=C(COC)/C(=C/C[C@H](OC(=O)c1ccncc1)c1cccc(OCCO)c1)c1cnc2ccccc2c1 , what is it?
Reply: 0.936

Ask: Please answer likewise for CO[C@H]1O[C@H](CO)[C@@H](OC(=O)Nc2ccc3c(c2)OCO3)[C@@H]2OC(=O)[C@@H](Cc3ccccc3)C/C=C/C[C@H](Cc3ccccc3)C(=O)O[C@@H]12
Reply: 0.825

Ask: # repeat for COc1ccc(CCNC(=O)[C@@]2(Sc3ccc(C)cc3)CC(=O)N(C(C)C)[C@@H]2c2ccc(CO)cc2)cc1
Reply: 0.741

Ask: Query COC(=O)[C@H](Cc1ccc(O)cc1)N1CC2=CCCC=C[C@@H]2[C@H]1[C@H](O)Cc1ccccc1 next
Reply: -1.53

Ask: Entry to check: C=CC[C@]1(C(=O)N(C)C)COC(c2ccc(OCCCO)cc2)=N1
Reply: 0.627

Ask: Request: C=CC(CO)NC(=O)OCC1c2ccccc2-c2ccccc21 (centres undefined)
Reply: -0.124

Ask: Moving on to COc1cccc(OC)c1C(=O)O[C@H]1[C@@H]2OC(=O)[C@H](Cc3cccc(Br)c3)C/C=C/C[C@@H](Cc3cccc(Br)c3)C(=O)O[C@H]2[C@@H](OC)O[C@@H]1CO
Reply: -0.0392

Ask: Next compound: COC(=O)[C@@]1(Cc2ccccc2)[C@@H]2[C@@H](CC(=O)[C@H]2CC(=O)C(=O)N(C)C)CN1C(=O)c1ccccc1
Reply: 0.543

Ask: Repeat for the following compound: COc1ccc([Si](C)(C)[C@H]2[C@H](CCO)O[C@@]3(C(=O)N(Cc4ccc(N5CCOC5=O)cc4)c4ccccc43)[C@@H]2C)cc1
Reply: 32.8

Ask: Try this compound too: O=C1N(Cc2ccccc2)c2ccccc2[C@H]2OC(c3ccc(OCCCO)cc3)=N[C@@]12Cc1ccccc1
Reply: 25.3

Ask: Please answer likewise for [N-]=[N+]=NCc1ccccc1C[C@]1(C(=O)N2CCCCC2)N=C(c2ccc(OCCCO)cc2)O[C@H]1c1ccccc1
Reply: 5.49

Ask: Same for O=C1C2C=CC(C(O)C(c3ccccc3)c3ccccc3)N(Nc3ccccc3)C2C(=O)N1c1ccccc1 (centres undefined)
Reply: 1.71

Ask: Record: C=CCC(OC(C)=O)[C@@H]1[C@@H](N(Cc2cc3ccccc3o2)C(=O)Cc2ccc(OC)cc2)c2cc(OCCCO)ccc2N1C(=O)Cc1ccc(OC)cc1 (some centres undefined)
Reply: 0.297

Ask: Let us now turn to COCCCNC(=O)[C@@H]1c2ccccc2C(=O)N(C2CCCCC2)[C@H]1c1ccc(CO)cc1
Reply: -0.0928

Ask: Continue with O=C(NCC(F)(F)F)[C@@H]1c2ccccc2C(=O)N(CC23CC4CC(CC(C4)C2)C3)[C@H]1c1ccc(CO)cc1
Reply: -0.399

Ask: // same read-out, input: CC(C)C[C@@H]1NC(=O)C([C@@H](C)OCc2ccccc2)NC(=O)[C@@]23C(=O)N[C@@H](Cc4ccccc4)C2[C@H](C)[C@@]2(C)O[C@H]2C3/C=C/CC/C=C/CNC1=O (some centres undefined)
Reply: -0.601

Ask: For CCCC=C(CCC)[C@@H](NS(=O)(=O)c1ccc(Cl)cc1)c1ccccc1 then?
Reply: 0.1
